Please provide measured melting point for the entries that follow.

The examples below pair each entry with its known result.
GET /values?readout=melting point&item= CC(C)(C)OC(=O)n1cc(-c2cccc(NC(=O)c3cc4cc(F)ccc4[nH]3)c2)nc1N
189 to 192 °C

Try the compound CC(C)(C)OC(=O)n1cc(-c2cccc(NC(=O)c3cc4cc(O)ccc4[nH]3)c2)nc1N
192 to 196 °C

Try the compound Cl.Nc1nc(-c2cccc(NC(=O)c3cc4cc(OCc5ccccc5)ccc4[nH]3)c2)c[nH]1
175 to 178 °C

Try the compound Cl.Nc1nc(-c2cccc(NC(=O)c3cc4cc(F)ccc4[nH]3)c2)c[nH]1
202 to 205 °C

Try the compound Cl.Nc1nc(-c2cccc(NC(=O)c3cc4cc(OC(F)(F)F)ccc4[nH]3)c2)c[nH]1
255 to 260 °C

Try the compound COc1ccc2[nH]c(C(=O)Nc3cccc(-c4cn(C(=O)OC(C)(C)C)c(N)n4)c3)cc2c1
173 to 177 °C

Now for the compound whose melting point we want.
GET /values?readout=melting point&item= COc1ccc2[nH]c(C(=O)Nc3cccc(-c4c[nH]c(N)n4)c3)cc2c1.Cl
237 to 241 °C

All values here come from paper PMC3944524.
